Test system: PPARg DBDmut:RXRa IVT, anti-PPARg (DBD mutation: PPARg1 K132A/R137A, NR concentration 270 nM, RXRa partner concentration 90 nM)
Experiment: PBM binding z-score (relative to random genomic background probes); higher = stronger binding; sequences stand for … in GC…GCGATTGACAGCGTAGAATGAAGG
Parameter: PBM binding z-score

{"Residues": "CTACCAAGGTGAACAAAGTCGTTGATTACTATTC", "Parameter": "PBM binding z-score", "Value Observed": 0.74}
{"Residues": "ATCGAAAGGCCGAGGTGAGTATAGAGAAAGGGAA", "Parameter": "PBM binding z-score", "Value Observed": -0.257}
{"Residues": "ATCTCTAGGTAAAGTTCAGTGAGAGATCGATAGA", "Parameter": "PBM binding z-score", "Value Observed": 1.04}
{"Residues": "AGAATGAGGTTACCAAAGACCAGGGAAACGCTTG", "Parameter": "PBM binding z-score", "Value Observed": 0.85}
{"Residues": "ATATGTAGGTTAAGGGACATTCAGGTTGGTTCGC", "Parameter": "PBM binding z-score", "Value Observed": 1.67}
{"Residues": "ACTATTAGTTGACTTACGGCAACCGATACGACGC", "Parameter": "PBM binding z-score", "Value Observed": 0.614}
{"Residues": "TCTTGTAGATCAAAGGTTAGGAAAGCCGAAGCCT", "Parameter": "PBM binding z-score", "Value Observed": 0.503}
{"Residues": "GGGACGAGGGCATTCGAGTTGATAGCATGGCGAT", "Parameter": "PBM binding z-score", "Value Observed": -0.173}
{"Residues": "CCTCGGAGGACAACAGGAGGTCAGATCTGCCAGA", "Parameter": "PBM binding z-score", "Value Observed": -0.732}
{"Residues": "ATATGTAGGTCACATCCGGGTCATTCAGGCTATG", "Parameter": "PBM binding z-score", "Value Observed": 2.83}
{"Residues": "CGTCCAAGGTCAATGCTAGGTCAGTGCAAGCATT", "Parameter": "PBM binding z-score", "Value Observed": -0.816}
{"Residues": "TCTATTACTTGATTAGGGCAACCGAAACAGCGGA", "Parameter": "PBM binding z-score", "Value Observed": 0.681}
{"Residues": "ACCTCTAGGTAAAGATAGTTCAGTGAATGCAAAT", "Parameter": "PBM binding z-score", "Value Observed": -0.152}
{"Residues": "CATCCTAGGTCAGGGCCAGTATAGGAGGAACGTT", "Parameter": "PBM binding z-score", "Value Observed": 0.575}
{"Residues": "CAAACTAGGTCACCGGAAGGTCAAAGACCGCATG", "Parameter": "PBM binding z-score", "Value Observed": 2.33}
{"Residues": "CCTAGTTGGTCAGCAGGTCACACACCGGATATGA", "Parameter": "PBM binding z-score", "Value Observed": -0.32}
{"Residues": "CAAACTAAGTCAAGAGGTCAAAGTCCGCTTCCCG", "Parameter": "PBM binding z-score", "Value Observed": 0.624}
{"Residues": "CCTACTGGGCCATCAGGTCATTGAGATCAACGTT", "Parameter": "PBM binding z-score", "Value Observed": 0.317}
{"Residues": "CCTAGCAAGCCAGGGTCACTCAAGCATTTCGCTT", "Parameter": "PBM binding z-score", "Value Observed": -0.962}
{"Residues": "CCTTACGGGTCACTCCACGTTATAGCATCGGAGT", "Parameter": "PBM binding z-score", "Value Observed": 0.675}
{"Residues": "CAAACTAGGTCAAGGTCAAAGTCGGTTTGTGCCA", "Parameter": "PBM binding z-score", "Value Observed": 3.11}
{"Residues": "ACTAGCTGGCCAAGTTTGGGTCACTCAAACAAAG", "Parameter": "PBM binding z-score", "Value Observed": -0.848}
{"Residues": "CCTACTGGGCCATCAGCTCATTGATATCAACGTT", "Parameter": "PBM binding z-score", "Value Observed": -0.394}
{"Residues": "TTACCAAGGTGAGCTGAGGTCGTTAATCCAACTC", "Parameter": "PBM binding z-score", "Value Observed": -0.772}
{"Residues": "CCAGACAGGTGAAAGGCAACTCAGTCTGGTACGC", "Parameter": "PBM binding z-score", "Value Observed": 0.0608}
{"Residues": "CATACAGGGTCTGCTAGGCCAGAGTAGGGACGGC", "Parameter": "PBM binding z-score", "Value Observed": -0.142}

====

Test system: LXRb homodimer (NR concentration 270 nM)
Assay: PBM binding z-score (relative to random genomic background probes); higher = stronger binding; sequences stand for … in GC…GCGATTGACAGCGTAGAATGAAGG
The label depends only on PBM binding z-score: TRUE if it is at least -0.2, FALSE if it is smaller.

{"Residues": "TAGCCTAGGTCATGCGGGCCAGTAGAGTGTCGGC", "System Name": "LXRb homodimer (NR concentration 270 nM)", "Assigned Label": "FALSE"}
{"Residues": "GCTGCTAGGTCAGGTTGGTCAGCTCACGGGTACG", "System Name": "LXRb homodimer (NR concentration 270 nM)", "Assigned Label": "TRUE"}
{"Residues": "CTCGAAAGGTCGTGCTCAGGTGGGTATACCAAAC", "System Name": "LXRb homodimer (NR concentration 270 nM)", "Assigned Label": "TRUE"}
{"Residues": "CCTAGCAGGCTAATCTGGGTCACTCAAGGCTTGA", "System Name": "LXRb homodimer (NR concentration 270 nM)", "Assigned Label": "FALSE"}
{"Residues": "GTACCAAGGTGAATAGGTCGTCGATGAGTAGGCG", "System Name": "LXRb homodimer (NR concentration 270 nM)", "Assigned Label": "FALSE"}
{"Residues": "TCACCAAGGTGAGCTGAGGTCGTTGATCCAACTC", "System Name": "LXRb homodimer (NR concentration 270 nM)", "Assigned Label": "FALSE"}
{"Residues": "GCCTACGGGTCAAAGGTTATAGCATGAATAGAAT", "System Name": "LXRb homodimer (NR concentration 270 nM)", "Assigned Label": "TRUE"}
{"Residues": "TCGAGTAGGTTAGTGGGGGCATTCAGCCAACATA", "System Name": "LXRb homodimer (NR concentration 270 nM)", "Assigned Label": "TRUE"}
{"Residues": "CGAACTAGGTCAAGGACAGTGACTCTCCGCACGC", "System Name": "LXRb homodimer (NR concentration 270 nM)", "Assigned Label": "FALSE"}
{"Residues": "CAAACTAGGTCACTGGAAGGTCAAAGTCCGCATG", "System Name": "LXRb homodimer (NR concentration 270 nM)", "Assigned Label": "TRUE"}
{"Residues": "GGTATTAGTTGAAAGGGCAACCGAATGATTCTCG", "System Name": "LXRb homodimer (NR concentration 270 nM)", "Assigned Label": "TRUE"}
{"Residues": "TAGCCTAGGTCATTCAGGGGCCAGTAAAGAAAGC", "System Name": "LXRb homodimer (NR concentration 270 nM)", "Assigned Label": "TRUE"}

====

System: PXR:RXRa (NR concentration 270 nM, RXRa partner concentration 90 nM)
Test: PBM binding z-score (relative to random genomic background probes); higher = stronger binding; sequences stand for … in GC…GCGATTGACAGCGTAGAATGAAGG
Response field class: enum, chosen by comparing PBM binding z-score against range A (below 0.9), range B (0.9 to below 2), range C (2 or more)

{"Residues": "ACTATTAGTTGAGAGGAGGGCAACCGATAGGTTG", "Assigned Label": "range A"}
{"Residues": "TTACCAAGGTGAGCTGCGGTCGTTGATCCAACTC", "Assigned Label": "range B"}
{"Residues": "ATCTCTACGTAAAGATAGTTCAGTGAATGCAAAT", "Assigned Label": "range A"}
{"Residues": "AGATCGAGGGCAATGAGTTGATAGCACGGGTGGC", "Assigned Label": "range B"}
{"Residues": "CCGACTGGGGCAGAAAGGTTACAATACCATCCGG", "Assigned Label": "range B"}
{"Residues": "CCTATTGGGCCACGAAAGGTCATTGATTCAGTGA", "Assigned Label": "range C"}
{"Residues": "TCATATAGGTATTACAGGTGAAAGTCGGCATCTA", "Assigned Label": "range B"}
{"Residues": "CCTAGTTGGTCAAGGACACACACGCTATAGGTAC", "Assigned Label": "range A"}
{"Residues": "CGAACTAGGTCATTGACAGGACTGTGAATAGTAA", "Assigned Label": "range B"}
{"Residues": "TTACCAAGGTGAGCTGAGGTCGCTGATCCAACTC", "Assigned Label": "range C"}
{"Residues": "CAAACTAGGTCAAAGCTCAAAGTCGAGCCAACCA", "Assigned Label": "range B"}

All values here come from the supplement of paper PMC6555819.
